The compounds listed here are annotated with their TGI.
# Tested on: OVCAR-3 ovarian
# Assay Protocol: NCI tumour cell line growth inhibition, 48 h
Recorded Metric: TGI

>>> assay_result("O=C(O)Cc1cccnc1")
"> 100 µM"
>>> assay_result("Oc1c(I)cc(I)c2cccnc12")
"6.5 µM"
>>> assay_result("Cc1ccc(-c2nc(N/N=C/C=C/c3ccccc3)c3ccccc3n2)cc1")
"> 100 µM"
>>> assay_result("CCOP1(=O)C=C(C)C(Cl)=C(C)C1 (stereo not given)")
"> 100 µM"
>>> assay_result("O=CNCNCCO")
"> 100 µM"
>>> assay_result("Oc1ccc2cc(Br)ccc2c1-c1c(O)ccc2ccc(Br)cc12")
"27.8 µM"
>>> assay_result("Cc1cc(C)nc(SC2=C(Nc3cc(Cl)ccc3O)C(=O)N(Cc3ccccc3)C2=O)n1")
"53.2 µM"
>>> assay_result("O=C1OC(C(O)CO)C(O)=C1O (stereo not given)")
"2900 µM"
>>> assay_result("O=C(Nc1cccc(-n2cc(-c3ccncc3)c(-c3cc(O)cc(Cl)c3)n2)c1)c1cc(C(F)(F)F)cc(C(F)(F)F)c1")
"25.7 µM"
>>> assay_result("CCOC(=O)NNC(=O)NCc1cccc(CNC(=O)NNC(=O)OCC)c1")
"> 100 µM"
>>> assay_result("O=c1[nH]cc(F)c(=O)n1C1OC(CO)C(O)C1O (stereo not given)")
"> 100 µM"
>>> assay_result("COc1ccc(N(CC(=O)NCCC[Te]c2ccccc2)C(=O)CNC(=O)OC(C)(C)C)cc1")
"7.88 µM"
>>> assay_result("Cc1ccccc1NC(=O)C(=O)C(C#N)c1ccccc1C (stereo not given)")
"> 100 µM"
>>> assay_result("NC(=O)NNC(=O)NC12CC3CC(CC(C3)C1)C2")
"> 100 µM"
>>> assay_result("O=C(O)/C=C/c1nc2ccccc2c(=O)o1")
"> 100 µM"
>>> assay_result("Cc1ccc2nc(N/N=C/c3sccc3C)cc(C)c2c1")
"> 100 µM"
>>> assay_result("CN1C(c2ccccc2)CC(=O)C(N)C1c1ccccc1 (stereo not given)")
"> 86.3 µM"
>>> assay_result("COc1ccc(Oc2cccc(C3C4C(=O)N(c5ccc(C)c(Cl)c5)C(=O)C4ON3C(C(N)=O)c3ccccc3)c2)cc1 (stereo not given)")
"> 50 µM"
>>> assay_result("NS(=O)(=O)c1nnc(NS(=O)(=O)C(F)(F)F)s1")
"> 100 µM"
>>> assay_result("CC(C)=CCN1CC(C)C(=O)Nc2ccccc21 (stereo not given)")
"> 100 µM"
>>> assay_result("O=c1[nH]nc(Cc2ccccc2)n1C1CCCC1")
"> 100 µM"
>>> assay_result("COc1ccc(/C=C(\\C#N)n2nnc3c(F)cccc32)cc1")
"2.53 µM"
>>> assay_result("C[N+](C)(C)c1ncnc2c1ncn2C1CC(O)C(CO)O1 (stereo not given)")
"> 100 µM"
>>> assay_result("COC1C(N)C(OC2C(Oc3cccc4c(O)c5c(=O)oc6ccc(C)c7c(=O)oc(c34)c5c67)OC(C)C(O)C2(C)O)OC(C)C1O (stereo not given)")
"0.406 µM"
>>> assay_result("NC(=O)C(=O)C1CCC2=C(Sc3ccccc3N2)C1=O (stereo not given)")
"> 100 µM"
>>> assay_result("NC1CC(=O)c2c1sc(Cl)c2Cl (stereo not given)")
"> 100 µM"
>>> assay_result("[N-]=[N+]=NI1OC(=O)c2ccccc21")
"> 100 µM"
>>> assay_result("c1ccc(CCc2cccnc2)nc1")
"> 100 µM"
>>> assay_result("O=C(CC1(O)C(=O)N(Cc2ccccc2)c2ccccc21)c1ccc(C(=O)NCC2CCC3(CC2)OOC2(CCCCC2)OO3)cc1 (stereo not given)")
"2.74 µM"
>>> assay_result("COCOCC/C=C/C=O")
"> 100 µM"
>>> assay_result("CC(=O)Oc1ccc(/C=C/C(=O)OCCCOC(=O)/C=C/c2ccc(OC(C)=O)c(OC(C)=O)c2)cc1OC(C)=O")
"> 100 µM"
>>> assay_result("CC1CN=C(N(Cc2ccccc2)C(=O)Nc2ccc(Cl)c(Cl)c2)S1 (stereo not given)")
"> 100 µM"
>>> assay_result("Nc1ncnc2oc(C3OC(COC(=O)c4ccccc4)C(OC(=O)c4ccccc4)C3OC(=O)c3ccccc3)nc12 (stereo not given)")
"> 100 µM"
>>> assay_result("O[C@@]12Cc3c([nH]c4ccccc34)[C@@H]3Oc4cccc5c4[C@@]31CCN(CC1CC1)[C@@H]2C5")
"36.8 µM"
>>> assay_result("O=S(=O)(c1cccc(N=C=S)c1)c1cccc(N=C=S)c1")
"24 µM"

---

# Tested on: OVCAR-4 ovarian
# Assay Protocol: NCI tumour cell line growth inhibition, 48 h; in the data active = GI50 below about 0.43 µM; inactive = the rest
Labels: True (active), False (inactive)

>>> label_class("CCCCCCNC(=O)Oc1ccc(/C(=C(\\C)c2ccc(Cl)cc2)c2ccc(OCCN3CCCCC3)cc2)cc1")
"False"
>>> label_class("C=CCN1CC(=O)N2[C@@H](Cc3ccc(O)cc3F)C(=O)N(Cc3cccc(N4CC(N5CCN(CC)CC5)C4)n3)C[C@@H]2N1C(=O)NCc1ccccc1")
"True"
>>> label_class("CCC1(O)C(=O)OCc2c1cc1n(c2=O)Cc2cc3c(NC(=O)CN)cccc3nc2-1 (stereo not given)")
"False"
>>> label_class("Oc1ccc(C(c2ccc(O)cc2)c2ccc(Br)cn2)cc1")
"True"
>>> label_class("COC(=O)c1cc2c(cc1Cl)SC1=NN(C)C(N(C)C)N1S2(=O)=O (stereo not given)")
"False"

---

# Test system: SNB-19 CNS
# Assay Protocol: NCI tumour cell line growth inhibition, 48 h
# reported TGI; entries follow
Recorded Metric: TGI

>>> assay_result("CC1(C)CC[C@]2(C)CC[C@]3(C)C(=CC[C@@H]4[C@@]5(C)CCC(=O)C(C)(C)[C@@H]5[C@H](O)C[C@]43C)[C@@H]2C1")
"30.6 µM"
>>> assay_result("CON(C)c1nc(N(C)OC)nc(N(C)OC)n1")
"> 10 µM"
>>> assay_result("COC(=O)C1=C(OC(=O)/C(=C/c2ccc(Cl)cc2)c2ccc(Cl)cc2)C(C(=O)OC)[C@]2(O)[C@@H](C(=O)OC)[C@H]1C[C@@H](c1ccccc1)[C@@H]2C(=O)OC (stereo not given in full)")
"> 100 µM"
>>> assay_result("COc1ccc(OC)c(N(CN2C(=O)CCC2C(=O)O)C(C)=O)c1 (stereo not given)")
"> 100 µM"
>>> assay_result("CC12CCC(=O)N1c1ccc([N+](=O)[O-])cc1N2 (stereo not given)")
"> 100 µM"

---

# Tested on: OVCAR-5 ovarian
# Assay Protocol: NCI tumour cell line growth inhibition, 48 h
Recorded Metric: GI50

>>> assay_result("CC(C)(O)CNc1nc(Nc2ccnc(C(F)(F)F)c2)nc(-c2cccc(C(F)(F)F)n2)n1")
"22.5 µM"
>>> assay_result("c1ccc(-c2nc(N3CCNCC3)c3oc(-c4ccccc4)nc3n2)cc1")
"1.69 µM"
>>> assay_result("COC(=O)c1cc2c(cc1Cl)SC1=NN(C)C(N(C)C)N1S2(=O)=O (stereo unspecified)")
"> 100 µM"
>>> assay_result("COc1cc(/C=C/C(=O)c2cccc(-n3cc(-c4ccc(Cl)cc4)[nH]c3=O)c2)cc(OC)c1OC")
"3.11 µM"
>>> assay_result("COC(=O)[C@H]1CCCN1C(=O)[C@H]1CCCN1C(=O)[C@@H](Cc1c[nH]c2ccccc12)NC(=S)Nc1cc(C(F)(F)F)cc(C(F)(F)F)c1")
"1.78 µM"
>>> assay_result("COC(=O)CCCCC(=O)c1c(C)[nH]c(/C=C2\\N=C(c3ccc[nH]3)C=C2OC)c1C")
"0.87 µM"

---

# Test system: SNB-75 CNS
# Assay Protocol: NCI tumour cell line growth inhibition, 48 h
// TGI lookup, one value per entry
Recorded Metric: TGI

>>> assay_result("CC1(c2nc3ccccc3[nH]2)CCC(C(=O)O)C(C)(C)O1 (stereo not drawn)")
"> 100 µM"
>>> assay_result("O=c1[nH]c(=S)nc2nc3c4ccc[nH]c4c4ccccc4c3nc12")
"> 100 µM"
>>> assay_result("C[C@]12C[C@@H](OC(=O)[C@]1(C)O)[C@@H]([C@]1(O)CC[C@H]3[C@@H]4C[C@H]5O[C@]56C[C@H]5O[C@H]5C(=O)[C@]6(C)[C@H]4CC[C@@]31C)C2")
"> 50 µM"
>>> assay_result("CC(C)(C)C1=CC(C)(n2[nH]c(=O)n(-c3ccccc3)c2=O)C=C(C(C)(C)C)C1=O")
"> 100 µM"
>>> assay_result("NC(=O)C(=O)C1CCC2=C(Sc3ccccc3N2)C1=O (stereo not drawn)")
"> 100 µM"
>>> assay_result("c1ccc2c(c1)Nc1ccncc1S2")
"56.6 µM"
>>> assay_result("Cc1cc(C)nc(NS(=O)(=O)c2ccc(NC(=O)c3cccc4c(Nc5ccc(S(=O)(=O)Nc6cc(C)on6)cc5)c5ccccc5nc34)cc2)n1")
"48.9 µM"
>>> assay_result("CCCCCO/N=C\\c1c2c(O)c3c(O)c(C)c4c(c3c1O)C(=O)C(C)(O/C=C\\C(OC)C(C)C(OC(C)=O)C(C)C(O)C(C)C(O)C(C)/C=C\\C=C(\\C)C(=O)N2)O4 (stereo not drawn)")
"2.87 µM"
>>> assay_result("O=[N+]([O-])c1ccc(-c2nc3ccc(Cl)cc3[nH]2)cc1")
"> 100 µM"
>>> assay_result("COc1ccc(OC)c(N(CN2C(=O)CCC2C(=O)O)C(C)=O)c1 (stereo not drawn)")
"> 100 µM"
>>> assay_result("Cc1cc[n+]2c(c1)-c1cc(C)cc[n+]1CC2")
"> 100 µM"
>>> assay_result("C/C=C/C#CC#C/C=C/C=C/C(O)CCO (stereo not drawn)")
"> 23.1 µM"
>>> assay_result("CCOC(=O)C(C(=O)OCC)=C1NC2(c3ccccc3Nc3ccccc32)C(C#N)S1 (stereo not drawn)")
"53.2 µM"
>>> assay_result("COc1cc2c(cc1OCCCCN1CCN(C(=S)SCCC(C#N)(c3ccccc3)c3ccccc3)CC1)N=C[C@@H]1CCCN1C2=O")
"3.68 µM"
>>> assay_result("Cc1cc(C)nc(NS(=O)(=O)c2ccc(Nc3c4ccccc4nc4c(C(=O)Nc5ccc(S(=O)(=O)N=C(N)N)cc5)cccc34)cc2)n1")
"88.5 µM"
>>> assay_result("O=c1[nH]cc(F)c(=O)n1C1OC(CO)C(O)C1O (stereo not drawn)")
"> 100 µM"
>>> assay_result("Cc1ccc(C)c(N2C(=O)C(=O)C(c3nc4ccccc4s3)/C(=N/NC(=O)NN)C2=O)c1 (stereo not drawn)")
"> 100 µM"
>>> assay_result("COCOCC/C=C/C=O")
"> 100 µM"
>>> assay_result("COc1cc(C(C)O)c[n+](Cc2ccccc2)c1 (stereo not drawn)")
"> 100 µM"
>>> assay_result("COc1ccc(/C=C(\\C#N)n2nnc3c(F)cccc32)cc1")
"0.517 µM"
>>> assay_result("c1ccc2oc(-c3ccc(-c4nc5ccccc5o4)c4c3CC4)nc2c1")
"> 100 µM"
>>> assay_result("CC12CCC(=O)N1c1ccc([N+](=O)[O-])cc1N2 (stereo not drawn)")
"> 100 µM"
>>> assay_result("O=C(Nc1cccc(-n2cc(-c3ccncc3)c(-c3cc(O)cc(Cl)c3)n2)c1)c1cc(C(F)(F)F)cc(C(F)(F)F)c1")
"> 100 µM"
>>> assay_result("O=C(c1cccs1)N(C(=S)OCCOc1ccccc1)c1ccccc1")
"54.7 µM"
>>> assay_result("N#Cc1nc(-c2ccco2)oc1N")
"> 10 µM"
>>> assay_result("COC(=O)c1cc2c(cc1Cl)SC1=NN(C)C(N(C)C)N1S2(=O)=O (stereo not drawn)")
"> 100 µM"
>>> assay_result("O=C1Nc2ccccc2N=CC1NC(=O)C(c1ccccc1)c1ccccc1 (stereo not drawn)")
"> 100 µM"
>>> assay_result("Cc1cc(C#Cc2ccc(C(C)(C)C)cc2)ccc1-n1c(/C=C/c2ccc(O)cc2O)nc2ccccc2c1=O")
"16 µM"
